Origin of values: patent US20080096244A1

# System: D-aminoacylase from the Defluvibacter sp. A131-3 strain
# test_description: Substrate specificity, acylase activity measurement using D-/L-amino acid oxidase chromogenic reagent
# Assay type: biochemical
# reported_conditions: activity of N-acetyl-D-methionine = 100; 100 mmol/L substrate solution, pH 8, 37° C., 30 minutes
// reported Relative activity (% in relation to Met) for each item listed

Recorded results for 5 compounds are shown here.
smiles_string	endpoint_label	observed_result
CC(=O)N[C@H](Cc1ccccc1)C(=O)O	Relative activity (% in relation to Met)	37%
CC(=O)N[C@@H](CCC(=O)O)C(=O)O	Relative activity (% in relation to Met)	0%
CC(=O)N[C@@H](Cc1c[nH]c2ccccc12)C(=O)O	Relative activity (% in relation to Met)	0%
CC(=O)N[C@@H](Cc1ccc(O)cc1)C(=O)O	Relative activity (% in relation to Met)	0%
CC(=O)N[C@@H](CC(C)C)C(=O)O	Relative activity (% in relation to Met)	0%

Q: Recorded Relative activity (% in relation to Met) of CC(=O)N[C@@H](C(=O)O)C(C)C , please.
Ans: 762%

Q: Quick one: CC(=O)N[C@H](C(=O)O)C(C)C
Ans: 0%

Q: Quick one: CC(=O)N[C@H](Cc1c[nH]c2ccccc12)C(=O)O
Ans: 1.1%

====

# Tested on: D-aminoacylase from the Defluvibacter sp. A131-3 strain
# test_description: Substrate specificity, acylase activity measurement using D-/L-amino acid oxidase chromogenic reagent
# Assay type: biochemical
# reported_conditions: activity of N-acetyl-D-valine = 100; 100 mmol/L substrate solution, pH 8, 37° C., 30 minutes
endpoint_label: Relative activity (% in relation to Val) (%)
Express your answer in %, writing the number without its unit.

Recorded results for 5 molecules are shown here.
molecule	Relative activity (% in relation to Val) (%)
CC(=O)N[C@@H](CC(C)C)C(=O)O [N-Ac-L-Leu, N-acetyl-L-leucine]	0
CC(=O)N[C@H](C(=O)O)C(C)C [N-Ac-L-Val, N-acetyl-L-valine]	0
CC(=O)N[C@H](CCC(=O)O)C(=O)O [N-Ac-D-Glu, N-acetyl-D-glutamic acid]	0
CC(=O)N[C@@H](Cc1c[nH]c2ccccc12)C(=O)O [N-Ac-L-Trp, N-acetyl-L-tryptophan]	0
CC(=O)N[C@@H](Cc1ccccc1)C(=O)O [N-Ac-L-Phe, N-acetyl-L-phenylalanine]	0

Q: Recorded Relative activity (% in relation to Val) of CC(=O)N[C@@H](C(=O)O)C(C)C [N-Ac-D-Val, N-acetyl-D-valine] , please.
Ans: 100

Q: Quick one: CC(=O)N[C@@H](CCC(=O)O)C(=O)O [N-Ac-L-Glu, N-acetyl-L-glutamic acid]
Ans: 0

Q: Quick one: CC(=O)N[C@H](CC(C)C)C(=O)O [N-Ac-D-Leu, N-acetyl-D-leucine]
Ans: 73

====

# Tested on: D-aminoacylase from the Defluvibacter sp. A131-3 strain
# test_description: Substrate specificity, acylase activity measurement using D-/L-amino acid oxidase chromogenic reagent
# Format: biochemical
# reported_conditions: activity of N-acetyl-D-valine = 100; 100 mmol/L substrate solution, pH 8, 37° C., 30 minutes
Threshold 0.2%: Relative activity (% in relation to Val) strictly smaller gives Y, otherwise N.

Past entries and their recorded results:
smiles_string	experimental_system	label_value
CSCC[C@H](NC(C)=O)C(=O)O	D-aminoacylase from the Defluvibacter sp. A131-3 strain	Y
CC(=O)N[C@H](Cc1ccc(O)cc1)C(=O)O	D-aminoacylase from the Defluvibacter sp. A131-3 strain	N

Q: Is 0.2% strictly greater than the compound's reported Relative activity (% in relation to Val)? compound: CC(=O)N[C@@H](Cc1ccc(O)cc1)C(=O)O
Ans: Y

Q: Quick one: CSCC[C@@H](NC(C)=O)C(=O)O
Ans: N

Q: Quick one: CC(=O)N[C@H](Cc1ccccc1)C(=O)O
Ans: N

====

# System: D-aminoacylase from the Defluvibacter sp. A131-3 strain
# test_description: Effects of inhibitor on D-aminoacylase activity (D-valine produced, HPLC)
# Format: biochemical
# reported_conditions: inhibitor 5 mmol/L; 0.5 mol/L N-acetyl-D-valine, enzyme 500 U, 40° C., 1 day; no addition of inhibitor = 100%
# Experimental: The detection was conducted at 230 nm. The column was analyzed at a temperature of 30° C. The enzymatic activity was evaluated in terms of the ratio between the area of the acetyl compound and the free compound, and the resolution rate was expressed as a […]
endpoint_label: Relative activity (%)
Express your answer in %, writing the number without its unit.

Recorded results for 4 compounds are shown here.
compound	unit_text	Relative activity (%)
O=C(O)CN(CCN(CC(=O)O)CC(=O)O)CC(=O)O [Ethylenediamine tetraacetic acid, ethylenediamine tetraacetic acid]	%	112
c1cnc2c(c1)ccc1cccnc12 [O-phenanthroline, o-phenanthroline]	%	53
NC(=O)CI [Iodacetamide, iodacetamide]	%	107
CCN1C(=O)C=CC1=O [N-ethylmaleimide]	%	100

// next item, Relative activity (%) requested
Q: Recorded Relative activity (%) of O[C@H](CS)[C@H](O)CS (racemic) [Dithiothreitol, dithiothreitol] , please.
Ans: 38

====

# Tested on: D-aminoacylase from the Defluvibacter sp. A131-3 strain
# test_description: Effects of metal ions on D-aminoacylase activity (D-valine produced, HPLC)
# Type: biochemical
# reported_conditions: metal ion 1.0 mmol/L; 0.5 mol/L N-acetyl-D-valine, enzyme 500 U, 40° C., 1 day; no metal addition = 100%
Threshold 30%: Relative activity (%) strictly smaller gives 1 (yes), otherwise 0 (no).

Past entries and their recorded results:
compound	experimental_system	label_value
[Na+].[Na+].[O]=[Mo](=[O])([O-])[O-] [Sodium molybdate, sodium molybdate]	D-aminoacylase from the Defluvibacter sp. A131-3 strain	0 (no)
O.O.O.O.O.O.[Cl-].[Cl-].[Co+2] [Cobalt (II) chloride, cobalt (II) chloride hexahydrate]	D-aminoacylase from the Defluvibacter sp. A131-3 strain	1 (yes)
O.O.O.O.[Cl][Mn][Cl] [Manganese chloride, manganese (II) chloride tetrahydrate]	D-aminoacylase from the Defluvibacter sp. A131-3 strain	0 (no)

Q: Is 30% strictly greater than the compound's reported Relative activity (%)? compound: [Cl-].[Na+] [Sodium chloride, sodium chloride]
Ans: 0 (no)

Q: Quick one: O.O.O.O.O.O.[Cl][Ni][Cl] [Nickel chloride, nickel chloride hexahydrate]
Ans: 1 (yes)

Q: Quick one: [Cl-].[K+] [Potassium chloride, potassium chloride]
Ans: 0 (no)

Q: Quick one: [Cl-].[Cl-].[Zn+2] [Zinc chloride, zinc chloride]
Ans: 0 (no)

====

# System: D-aminoacylase from the Defluvibacter sp. A131-3 strain
# test_description: Substrate specificity, acylase activity measurement using D-/L-amino acid oxidase chromogenic reagent
# Type: biochemical
# reported_conditions: activity of N-acetyl-D-methionine = 100; 100 mmol/L substrate solution, pH 8, 37° C., 30 minutes
// reported Relative activity (% in relation to Met) for each item listed
Express your answer in %, writing the number without its unit.

Recorded results for 5 molecules are shown here.
smiles_string	unit_text	observed_result
CSCC[C@@H](NC(C)=O)C(=O)O	%	100
CC(=O)N[C@H](CC(C)C)C(=O)O	%	555
CC(=O)N[C@H](CCC(=O)O)C(=O)O	%	0
CC(=O)N[C@@H](Cc1ccccc1)C(=O)O	%	0
CC(=O)N[C@H](Cc1ccc(O)cc1)C(=O)O	%	8.4

// next item, Relative activity (% in relation to Met) requested
Q: Recorded Relative activity (% in relation to Met) of CSCC[C@H](NC(C)=O)C(=O)O , please.
Ans: 0
